Tested on: NCI-H522
Experiment: NCI tumour cell line growth inhibition, 48 h
Activity calls are given as the source filed them. Cut-off read from the data, not from the text of the source: active = GI50 up to about 1.1 µM and inactive = higher.
Use one of these outcomes when replying: active, inactive

# MOLECULE, DISCRETE LABEL
data = [
    ("Cc1ccc(OCC2OC(n3cnc4nc(Cl)nc(Cl)c43)CC2Oc2ccc(C)cc2)cc1 (stereo unspecified)", "inactive"),
    ("NS(=O)(=O)c1ccc(NNc2c3ccccc3nc3ccccc23)cc1", "inactive"),
    ("COc1ccc(-n2c(N)c(C#N)c(C#N)c2-c2ccccc2)cc1", "inactive"),
    ("CC(C)CC1C(=O)OC(C)(C)OC1=O", "inactive"),
]

Input line: Called result for CC(C)(Br)C(=O)C(Br)Br
Output line: inactive

Input line: Called result for Cc1c2ccccc2c(CSC(=N)N)c2ccccc12
Output line: active

Input line: Called result for CN(C)c1ccc(/C=C2\N=C(N/N=C/c3ccc(N(C)C)cc3)NC2=O)cc1
Output line: inactive

Input line: Called result for Nc1nc(-c2ccccc2)nc2oc(-c3cccs3)nc12
Output line: inactive

Input line: Called result for CNNC1=NS(=O)(=O)c2cc(C(=O)OC)c(Cl)cc2S1
Output line: inactive

Input line: Called result for CC(=O)Nc1ccc(S(=O)(=O)c2nnc(NC(C)=O)s2)cc1
Output line: inactive

Input line: Called result for CC1=C(/C=C/C(C)=C/C=C/C(C)=C/C(=O)O)C(C)(C)CCC1
Output line: inactive

Input line: Called result for COC(=O)[C@H](Cc1ccccc1)NC(=O)NCCN(CCNC(=O)N[C@@H](Cc1ccccc1)C(=O)OC)C(=O)N[C@@H](Cc1ccccc1)C(=O)OC
Output line: inactive

Input line: Called result for Cn1c(=O)c2c(nc3n(Cc4ccccc4)c(=O)c(NCCBr)cn23)n(C)c1=O
Output line: inactive

Input line: Called result for CCCCCCCCCCCCCCCCSS(C)(=O)=O
Output line: inactive

Input line: Called result for C=CCSC1=N/C(=C\c2ccc(OC)cc2)C(=O)N1CC=C
Output line: inactive

Input line: Called result for C/C1=C\[C@H](C)C[C@H](C)OC(=O)C[C@H](c2ccc(O)cc2)NC(=O)[C@H](Cc2ccc(O)c(Br)c2)N(C)C(=O)[C@H](C)NC(=O)[C@@H](C)C1
Output line: inactive

Input line: Called result for CCCCCCc1ccc(O)cc1O
Output line: inactive
